Attribution: ChEMBL document CHEMBL1152381

experiment: Volume of distribution in Sprague-Dawley rat at 2 mg/kg, iv and 2 mg/kg, po; type: ADME, organism-based; settings: in vivo
readoutType: Vd
# include the unit after the value

Worked examples follow.
Data request: Query (compound): CCCOCCn1c(=O)c(NCCN2CCOCC2)nc2ccc(-c3ccc(OC)nc3)nc21 ; field requested: Vd
Data returned: 8 L/kg

Data request: Query (compound): CCCOCCn1c(=O)c(NCCN2CCOCC2)nc2ncc(-c3ccc(OC)nc3)nc21 ; field requested: Vd
Data returned: 5.2 L/kg

Data request: Query (compound): CCCOCCn1c(=O)c(NCCN2CCOCC2)nc2cnc(-c3ccc(OC)nc3)cc21 ; field requested: Vd
Data returned: 1.6 L/kg

Now turn to the next compound.
Data request: Query (compound): CCCOCCn1c(=O)c(NCCN2CCOCC2)nc2ncc(-c3ccc(OC)nc3)cc21 ; field requested: Vd
Data returned: 18.8 L/kg

###

experiment: Half life in Sprague-Dawley rat at 2 mg/kg, iv and 2 mg/kg, po; type: ADME, organism-based; details: in vivo
half-life: recorded values
// units = min; emit number, no label

Data request: Query (compound): CCCOCCn1c(=O)c(NCCN2CCOCC2)nc2ccc(-c3ccc(OC)nc3)nc21 ; field requested: half-life
Data returned: 186

Data request: Query (compound): CCCOCCn1c(=O)c(NCCN2CCOCC2)nc2cnc(-c3ccc(OC)nc3)cc21 ; field requested: half-life
Data returned: 192

Data request: Query (compound): CCCOCCn1c(=O)c(NCCN2CCOCC2)nc2ncc(-c3ccc(OC)nc3)nc21 ; field requested: half-life
Data returned: 36

Data request: Query (compound): CCCOCCn1c(=O)c(NCCN2CCOCC2)nc2ncc(-c3ccc(OC)nc3)cc21 ; field requested: half-life
Data returned: 204

###

pIC50: recorded values
test: Inhibition of PDE6
FYI, pIC50 means -log10 of a concentration in mol per litre.

Worked examples follow.
Data request: Query (compound): CCCOCCn1c(=O)c(NCCN2CCOCC2)nc2ncc(-c3ccc(OC)nc3)cc21 ; field requested: pIC50
Data returned: 7.21

Data request: Query (compound): CCCOCCn1c(=O)c(NCCN2CCOCC2)nc2ccc(-c3ccc(OC)nc3)cc21 ; field requested: pIC50
Data returned: 6.75

Data request: Query (compound): CCCOCCn1c(=O)c(NCCN2CCOCC2)nc2ccc(-c3ccc(OC)nc3)nc21 ; field requested: pIC50
Data returned: 6.47

***
Data request: Query (compound): CCCOCCn1c(=O)c(NCCN2CCOCC2)nc2cnc(-c3ccc(OC)nc3)cc21 ; field requested: pIC50
Data returned: 7.95

Data request: Query (compound): CCCOCCn1c(=O)c(NCCN2CCOCC2)nc2ncc(-c3ccc(OC)nc3)nc21 ; field requested: pIC50
Data returned: 6.53

Data request: Query (compound): CCCOCCn1c(=O)c(NCCN2CCOCC2)nc2cnc(-c3ccc(OC)nc3)nc21 ; field requested: pIC50
Data returned: 7.08

###

solubility: recorded values
assay: Aqueous solubility at pH 7.4; type: physicochemical
// units = µM; emit number, no label

Worked examples follow.
Data request: Query (compound): CCCOCCn1c(=O)c(NCCN2CCOCC2)nc2ccc(-c3ccc(OC)nc3)nc21 ; field requested: solubility
Data returned: 4.6

Data request: Query (compound): CCCOCCn1c(=O)c(NCCN2CCOCC2)nc2cnc(-c3ccc(OC)nc3)nc21 ; field requested: solubility
Data returned: 4.6

***
Data request: Query (compound): CCCOCCn1c(=O)c(NCCN2CCOCC2)nc2ncc(-c3ccc(OC)nc3)cc21 ; field requested: solubility
Data returned: 46

Data request: Query (compound): CCCOCCn1c(=O)c(NCCN2CCOCC2)nc2cnc(-c3ccc(OC)nc3)cc21 ; field requested: solubility
Data returned: 18

###

fraction unbound: recorded values
assay: Plasma protein binding in Sprague-Dawley rat at 2 mg/kg, iv and 2 mg/kg, po; assay type: ADME, organism-based; settings: read-out: PPB (converted)

Worked examples follow.
Data request: Query (compound): CCCOCCn1c(=O)c(NCCN2CCOCC2)nc2cnc(-c3ccc(OC)nc3)cc21 ; field requested: fraction unbound
Data returned: 0.5

Data request: Query (compound): CCCOCCn1c(=O)c(NCCN2CCOCC2)nc2ncc(-c3ccc(OC)nc3)cc21 ; field requested: fraction unbound
Data returned: 0.235

Data request: Query (compound): CCCOCCn1c(=O)c(NCCN2CCOCC2)nc2ncc(-c3ccc(OC)nc3)nc21 ; field requested: fraction unbound
Data returned: 0.088

Now turn to the next compound.
Data request: Query (compound): CCCOCCn1c(=O)c(NCCN2CCOCC2)nc2ccc(-c3ccc(OC)nc3)nc21 ; field requested: fraction unbound
Data returned: 0.104

###

target: hERG (KCNH2) (Homo sapiens, UniProt Q12809); test: Displacement of dofetilide from human ERG at 10 uM; conditions: probe dofetilide
Sequence (Q12809 whole entry): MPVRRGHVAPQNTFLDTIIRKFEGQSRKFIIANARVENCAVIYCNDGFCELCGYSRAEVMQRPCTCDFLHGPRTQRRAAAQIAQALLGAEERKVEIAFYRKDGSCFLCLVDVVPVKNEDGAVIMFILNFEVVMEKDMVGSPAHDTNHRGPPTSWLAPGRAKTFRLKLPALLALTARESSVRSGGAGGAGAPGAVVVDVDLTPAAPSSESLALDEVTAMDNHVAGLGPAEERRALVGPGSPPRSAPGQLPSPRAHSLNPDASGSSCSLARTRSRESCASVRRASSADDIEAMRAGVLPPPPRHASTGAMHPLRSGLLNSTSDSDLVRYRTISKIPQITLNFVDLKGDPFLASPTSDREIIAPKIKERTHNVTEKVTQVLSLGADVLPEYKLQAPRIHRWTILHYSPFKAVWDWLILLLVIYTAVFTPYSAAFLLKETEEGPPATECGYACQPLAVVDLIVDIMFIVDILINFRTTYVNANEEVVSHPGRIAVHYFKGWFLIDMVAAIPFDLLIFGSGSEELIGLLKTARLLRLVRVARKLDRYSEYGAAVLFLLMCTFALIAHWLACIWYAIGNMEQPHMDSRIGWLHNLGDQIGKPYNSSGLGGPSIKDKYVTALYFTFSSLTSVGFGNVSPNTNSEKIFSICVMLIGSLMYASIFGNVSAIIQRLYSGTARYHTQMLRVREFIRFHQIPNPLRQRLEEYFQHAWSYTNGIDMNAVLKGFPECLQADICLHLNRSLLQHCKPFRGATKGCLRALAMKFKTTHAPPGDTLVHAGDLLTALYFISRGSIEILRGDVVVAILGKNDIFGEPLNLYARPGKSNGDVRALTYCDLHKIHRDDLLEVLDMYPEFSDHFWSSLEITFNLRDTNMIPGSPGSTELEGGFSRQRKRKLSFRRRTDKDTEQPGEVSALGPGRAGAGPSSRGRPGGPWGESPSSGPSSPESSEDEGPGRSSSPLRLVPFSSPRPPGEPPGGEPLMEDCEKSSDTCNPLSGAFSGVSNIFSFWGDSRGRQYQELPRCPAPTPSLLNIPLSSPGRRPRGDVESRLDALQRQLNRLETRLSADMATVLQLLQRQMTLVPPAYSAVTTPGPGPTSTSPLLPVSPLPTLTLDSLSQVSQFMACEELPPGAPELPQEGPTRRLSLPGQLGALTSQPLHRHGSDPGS
inhibition at 10 µM: recorded values
// units = %; emit number, no label

Data request: Query (compound): CCCOCCn1c(=O)c(NCCN2CCOCC2)nc2cnc(-c3ccc(OC)nc3)cc21 ; field requested: inhibition at 10 µM
Data returned: 23

Data request: Query (compound): CCCOCCn1c(=O)c(NCCN2CCOCC2)nc2cnc(-c3ccc(OC)nc3)nc21 ; field requested: inhibition at 10 µM
Data returned: 15

Data request: Query (compound): CCCOCCn1c(=O)c(NCCN2CCOCC2)nc2ccc(-c3ccc(OC)nc3)nc21 ; field requested: inhibition at 10 µM
Data returned: 14

***
Data request: Query (compound): CCCOCCn1c(=O)c(NCCN2CCOCC2)nc2ncc(-c3ccc(OC)nc3)nc21 ; field requested: inhibition at 10 µM
Data returned: 11

Data request: Query (compound): CCCOCCn1c(=O)c(NCCN2CCOCC2)nc2ncc(-c3ccc(OC)nc3)cc21 ; field requested: inhibition at 10 µM
Data returned: 34

Data request: Query (compound): CCCOCCn1c(=O)c(NCCN2CCOCC2)nc2ccc(-c3ccc(OC)nc3)cc21 ; field requested: inhibition at 10 µM
Data returned: 43

###

assay: Metabolic stability in human hepatocytes assessed as compound remaining after 30 mins; format: ADME, cell-based, Hepatocyte; conditions: read-out: Stability
readoutType: remaining at 0.5 h (%)
// units = %; emit number, no label

Data request: Query (compound): CCCOCCn1c(=O)c(NCCN2CCOCC2)nc2ccc(-c3ccc(OC)nc3)cc21 ; field requested: remaining at 0.5 h
Data returned: 20

###

test: Metabolic stability in human liver microsomes assessed as compound remaining after 30 mins; format: ADME, Microsome; settings: read-out: Stability
So basically, if remaining at 0.5 h comes in under 20% it's Y, and if it's 20% or more it's N.

Solved entries (count: 4):
Data request: Here's an entry: CCCOCCn1c(=O)c(NCCN2CCOCC2)nc2cnc(-c3ccc(OC)nc3)cc21 . Is its remaining at 0.5 h below 20%?
Data returned: N

Data request: Here's an entry: CCCOCCn1c(=O)c(NCCN2CCOCC2)nc2ncc(-c3ccc(OC)nc3)cc21 . Is its remaining at 0.5 h below 20%?
Data returned: Y

Data request: Here's an entry: CCCOCCn1c(=O)c(NCCN2CCOCC2)nc2cnc(-c3ccc(OC)nc3)nc21 . Is its remaining at 0.5 h below 20%?
Data returned: N

Data request: Here's an entry: CCCOCCn1c(=O)c(NCCN2CCOCC2)nc2ccc(-c3ccc(OC)nc3)nc21 . Is its remaining at 0.5 h below 20%?
Data returned: Y

Pending molecule:
Data request: Here's an entry: CCCOCCn1c(=O)c(NCCN2CCOCC2)nc2ncc(-c3ccc(OC)nc3)nc21 . Is its remaining at 0.5 h below 20%?
Data returned: Y

###

assay: Inhibition of PDE11
IC50: recorded values
// units = µM; emit number, no label

Data request: Query (compound): CCCOCCn1c(=O)c(NCCN2CCOCC2)nc2cnc(-c3ccc(OC)nc3)nc21 ; field requested: IC50
Data returned: 1.47

Data request: Query (compound): CCCOCCn1c(=O)c(NCCN2CCOCC2)nc2ncc(-c3ccc(OC)nc3)cc21 ; field requested: IC50
Data returned: 1.39

Data request: Query (compound): CCCOCCn1c(=O)c(NCCN2CCOCC2)nc2cnc(-c3ccc(OC)nc3)cc21 ; field requested: IC50
Data returned: 0.346

Data request: Query (compound): CCCOCCn1c(=O)c(NCCN2CCOCC2)nc2ncc(-c3ccc(OC)nc3)nc21 ; field requested: IC50
Data returned: 3.56

Now turn to the next compound.
Data request: Query (compound): CCCOCCn1c(=O)c(NCCN2CCOCC2)nc2ccc(-c3ccc(OC)nc3)nc21 ; field requested: IC50
Data returned: 1.54
